Hi there, I'd appreciate the recorded apparent KD of MS2 coat protein for every entry that follows.
Test system: MS2 coat protein
method: apparent KD of MS2 coat protein; designed switch direction (-1 OFF switch, 1 ON switch): -1; higher = weaker reporter binding
assay.setup: input ligand: none
Only the number, expressed in nM, is required.

Lookup: Fill in the blank: the reported apparent KD of MS2 coat protein of GGAAUGUAAGGAUAUCCGAAAGGAAGGAGAGGGAGAGGGAAGGAGAAGGUACAUGAGGAUCACCCAUGUAAGGG [AK-MS2ROC-r4-exclusion4-9] (Eterna round: R97, puzzle: Exclusion 4) is ____.
Found: 69.2

Lookup: Fill in the blank: the reported apparent KD of MS2 coat protein of UUAUGGCGAGAGGAUAUUCUGCUACGGCCCGGAGAAGAAGGUUUGACAUGAGGAUCACCCAUGUGGUCGCUCCU [Eternabot (L2) Solution 29] (Eterna round: R97, puzzle: Exclusion 6) is ____.
Found: 238

Lookup: Fill in the blank: the reported apparent KD of MS2 coat protein of UCUGGUCGAGGAUAUACGUGAGGUGUUUCGGCACUAGGUCUACAUGAGGAUCACCCAUGUAGAAGGCGAUCAGA [EX2 #64] (Eterna round: R97, puzzle: Exclusion 2) is ____.
Found: 60.6

---

Tested on: K4 kissing-loop RNA reporter;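 note: bound reporter read as fluorescence of individual clusters on recovered sequencing chips by microscopy, with normalized cluster intensities fitted with a binding model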
method: apparent KD of K4 kissing-loop reporter; higher = weaker reporter binding
assay.setup: Eterna round: R107; input ligand: theophylline 20 uM
Hi there, I'd appreciate the recorded apparent KD of K4 kissing-loop reporter for every entry that follows.
Only the number, expressed in nM, is required.

Lookup: Fill in the blank: the reported apparent KD of K4 kissing-loop reporter of GGUCGCCUGAGCAGUGAUGUUGCAAGGGAAGGAGCGCGUUUUUUCGCAGGUAGGUCGCCCAAAUAAUAAGUUAAACUAGGCGACC [4.)] is ____.
Found: 316

Lookup: Fill in the blank: the reported apparent KD of K4 kissing-loop reporter of AACACCCGCUAUGAUACCAGUGAAGUGAUGUUUUACUCCGGGCGUAAGACAAAGGUCAGCCACCCUUGGCAGCAUAUCCGCGUAU [theeternabot_exclusion_KL_Theo_B_35] is ____.
Found: 490

Lookup: Fill in the blank: the reported apparent KD of K4 kissing-loop reporter of UUACUGAGUGAUGUUUGGAAAUAUCCUAGGCAGGAUAUGCGGAAACGCAGAAGGGCCACCUUCUAGUGAAGGAAACUUCGCUAUU [Ex FMN A 4] is ____.
Found: 397

Lookup: Fill in the blank: the reported apparent KD of K4 kissing-loop reporter of AUUAAUUUCAGAGGAUAUGCUUAAUUGAUUUAUUAUUAUCUAUUAUGCAGUGAUGUUGCAUAUUUUGCAGAAGGCUGAUUUAUAA [JR_SSFMNB_Sub018] is ____.
Found: 156

Lookup: Fill in the blank: the reported apparent KD of K4 kissing-loop reporter of UGAUACCAGACUGAUACCAGCGAGUGAUGUUCGUUGAAAUCAGGGUCAAAGACCCUGUCUCGCCCUUGGCAGCAGUCUGGUAUCU [TheoBX 22 #SwitchBubble #StaticStem] is ____.
Found: 320

Lookup: Fill in the blank: the reported apparent KD of K4 kissing-loop reporter of "GCCGUACGCACGGAUACCAGCACUCGGUGAGUGAUGUUCACGGUGUGGUAUUCAUCGGGCUGCCCUUGGCAGCCGUGCGUACGGC" is ____.
Found: 129

Lookup: Fill in the blank: the reported apparent KD of K4 kissing-loop reporter of AGACCACAAAGUGGUCAGUGUUCGCUGCAGCGAGGACCGGUACGGCCGCCACUCGCGAGUGAUGUUCGCGAGCGCAGCGAACACA [Omei KL Tryp A Exc A v5] is ____.
Found: 75.6

Lookup: Fill in the blank: the reported apparent KD of K4 kissing-loop reporter of "CGGCUUAGUAGCGCGAGUUGACGUGCCAUCCGAGGACCGGUACGGCCGCCACUCGUGAUCUGUUAAAGUGAUGUUUUAAUGCCAU" is ____.
Found: 711

Lookup: Fill in the blank: the reported apparent KD of K4 kissing-loop reporter of UGGACCUGACUCGAUAAGAGUCAAAGGGAUACCAGCCACGAAAGUGGCCCUUGGCAGCUCUGCCAGUGAUGUUGGUCAAGGUCCU [#SwitchBubble 6 #StaticStem] is ____.
Found: 590

Lookup: Fill in the blank: the reported apparent KD of K4 kissing-loop reporter of UGGAGUUGACGAAAAGUCAACUCCUGAGAUACCAGUGACGAAAGUCACCCUUGGCAGCUCACUGCCAGUGAUGUUGGAAGAUAAA [whbob_SS_Theo_A_w46] is ____.
Found: 289

Lookup: Fill in the blank: the reported apparent KD of K4 kissing-loop reporter of ACUGCCAUUGCGGCCGCCACUAUCUCACUUUGCGAAUCUGCACCGACUGAGUGAUGUUCGGUAAAUAGGACCGGGCAAUGGGCCG [theeternabot_sameState_KL_Trp_B_26] is ____.
Found: 281

Lookup: Fill in the blank: the reported apparent KD of K4 kissing-loop reporter of GUGUAAGUGAUGUUUGCACACACGUCGGAUACCAGAGACUUUAGCCUCCCUUGGCAGCCGCCGGCCAUAAGAGCAAGUCGAUUUA [theeternabot_sameState_KL_Theo_A_20] is ____.
Found: 194
